Target: Dopamine beta hydroxylase (Homo sapiens)
Construct: 125 μl of plasma; tissue Instituto Português do Sangue Transplantação; host or cells: human plasma from healthy donors
Sequence (P09172 40-617 limits assumed): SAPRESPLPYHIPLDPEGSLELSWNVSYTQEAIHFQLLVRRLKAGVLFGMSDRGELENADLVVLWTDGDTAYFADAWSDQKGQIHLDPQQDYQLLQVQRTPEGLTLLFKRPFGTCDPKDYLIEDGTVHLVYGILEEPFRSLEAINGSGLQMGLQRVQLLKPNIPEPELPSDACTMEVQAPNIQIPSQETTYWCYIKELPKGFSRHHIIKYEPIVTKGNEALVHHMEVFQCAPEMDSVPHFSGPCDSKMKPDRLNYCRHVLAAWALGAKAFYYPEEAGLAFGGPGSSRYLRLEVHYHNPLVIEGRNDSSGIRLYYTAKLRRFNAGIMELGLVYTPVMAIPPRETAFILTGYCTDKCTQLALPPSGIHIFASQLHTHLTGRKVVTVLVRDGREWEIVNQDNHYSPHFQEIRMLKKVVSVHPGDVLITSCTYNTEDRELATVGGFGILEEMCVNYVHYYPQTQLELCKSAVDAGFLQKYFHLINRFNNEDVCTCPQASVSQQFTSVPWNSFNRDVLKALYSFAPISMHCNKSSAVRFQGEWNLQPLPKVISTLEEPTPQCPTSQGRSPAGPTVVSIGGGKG
Experiment: Dopamine beta hydroxylase activity in human plasma
Type: biochemical
Details: inhibitor 0.1 μM
READOUT: Plasma (0.1 μM), activity in % of control

Here's what some known entries look like.
| COMPOUND | MEASUREMENT |
| --- | --- |
| O=C(Cc1[nH]c(=S)n2c1C[C@H](c1c(F)c(F)cc(F)c1F)C2)N1CCC[C@H]1CO [Example 98] | 53.1 % of control |
| Cn1c(CC(=O)N[C@H]2CCOC2)c2n(c1=S)C[C@@]1(c3cc(Br)ccc3F)C[C@@H]21 [Example 308] | 12.8 % of control |
| O=C(Cc1[nH]c(=S)n2c1C[C@H](c1c(F)ccc(F)c1F)C2)N1CCOCC1 [Example 366] | 81.4 % of control |
| Cn1c(CC(=O)O)c2n(c1=S)C[C@@H](c1c(F)c(F)cc(F)c1F)C2 [Example 229] | 38.3 % of control |
| O=C(NCc1[nH]c(=S)n2c1C[C@@H](c1c(F)ccc(Cl)c1F)C2)C1CCCC1 [Example 221] | 30.0 % of control |
| N#CN/C(N)=N/Cc1[nH]c(=S)n2c1C[C@@H](c1c(F)ccc(Br)c1F)C2 [Example 224] | 0.6 % of control |
| CN(C(=O)Cc1c2n(c(=S)n1C)C[C@@H](c1c(F)ccc(F)c1F)C2)C1CCOCC1 [Example 372] | 32.0 % of control |
| Cn1c(CC(=O)N2CC[C@@H](F)C2)c2n(c1=S)C[C@@H](c1c(F)ccc(F)c1F)C2 [Example 292] | 68.3 % of control |
| CN(C(=O)Cc1c2n(c(=S)n1C)C[C@@H](c1c(F)ccc(F)c1F)C2)[C@@H]1CCOC1 [Example 455] | 50.2 % of control |
| Cl.Fc1ccc(Cl)c(F)c1[C@@H]1Cc2c(CCN3CCOCC3)[nH]c(=S)n2C1 [Example 196] | 68.6 % of control |

# get_value(readout='Plasma (0.1 μM), activity in % of control', item= O=C(Cc1[nH]c(=S)n2c1C[C@@H](c1c(F)ccc(Br)c1F)C2)NC1CCOCC1 [Example 410] ) 11.1 % of control

// query: CCOCCCc1[nH]c(=S)n2c1C[C@H](c1c(F)c(F)cc(F)c1F)C2 [Example 216] 47.1 % of control

Source listed as patent US11434242B2.
